For each of the compounds below, state its combination Emax.
# Tested on: TOV-112D (Ovarian Carcinoma)
# TEST: combination Emax (second highest fraction inhibited in the dose matrix, 72 h); higher = more inhibition; extreme values may be limits of the assay

# COMPOUND, RESULT
data = [
    ("CCN(CCO)CCCOc1ccc2c(Nc3cc(CC(=O)Nc4cccc(F)c4)[nH]n3)ncnc2c1 [AZD2811] + C[C@@H]1COCCN1C2=NC(=NC(=C2)C3(CC3)[S@](=N)(=O)C)C4=C5C=CNC5=NC=C4 [AZD6738] (first compound max 1 µM, 7x7, partner max 10 µM)", 0.707),
    ("COc1nnc2ccc(N3CCC(c4ccc(OCCN5CCN(C)C(=O)[C@H]5C)cc4)CC3)nn12 [AZD5153] + CCN(CCO)CCCOc1ccc2c(Nc3cc(CC(=O)Nc4cccc(F)c4)[nH]n3)ncnc2c1 [AZD2811] (first compound max 1 µM, 7x7, partner max 1 µM)", 0.718),
]

Below: the item to evaluate.
Query: Let me know recorded combination Emax for CN(C)CCCOc1ccc(-c2ccc3ncc4c(c3c2)n(C2CCOCC2)c(=O)n4C)cn1 [AZD0156] + C[C@@H]1COCCN1C2=NC(=NC(=C2)C3(CC3)[S@](=N)(=O)C)C4=C5C=CNC5=NC=C4 [AZD6738] (first compound max 1 µM, 7x7, partner max 10 µM) , thanks.
Reply: 0.717

// data source = the supplement of paper PMC11061612
